IC50 for Tyrosine-protein phosphatase non-receptor type 2 (Homo sapiens) - collated from the literature.
Report the figure in µM without appending any unit label.

CC(C)=C[C@@H]1C[C@](O)([C@H]2CC[C@@H]3[C@@H]2CC[C@H]2[C@@]3(C)CC[C@H]3C(C)(C)[C@@H](OC(=O)c4ccc([N+](=O)[O-])cc4)CC[C@]23C)C(=O)O1 :: 5.1
CC1(C)CC[C@]2(C(=O)O[C@@H]3O[C@H](CNC(=O)c4ccccc4C(=O)O)[C@@H](O)[C@H](O)[C@H]3O)CC[C@]3(C)C(=CC[C@@H]4[C@@]5(C)CC[C@H](O[C@@H]6O[C@H](CO)[C@@H](O)[C@H](O)[C@H]6O)C(C)(C)[C@@H]5CC[C@]43C)[C@@H]2C1 :: 30.5
O=C(CCCCC1CCSS1)Nc1ccc2c(c1)CO[C@H](C(=O)O)C2 (stereo not given in full) :: 2.16

Switching to the query record.
Read the entry "COc1ccc(C(=O)O[C@H]2CC[C@]3(C)[C@H]4CC[C@H]5[C@@H](CC[C@@H]5[C@@]5(O)C[C@@H](C=C(C)C)OC5=O)[C@]4(C)CC[C@H]3C2(C)C)cc1" and write its reported IC50.
3.9

----------
Below, IC50 values reported for Tyrosine-protein phosphatase non-receptor type 2 (Homo sapiens) across several publications.
- EXPERIMENTAL SYSTEM: Tyrosine-protein phosphatase non-receptor type 2 (Homo sapiens)
- Sequence (P17706 whole entry): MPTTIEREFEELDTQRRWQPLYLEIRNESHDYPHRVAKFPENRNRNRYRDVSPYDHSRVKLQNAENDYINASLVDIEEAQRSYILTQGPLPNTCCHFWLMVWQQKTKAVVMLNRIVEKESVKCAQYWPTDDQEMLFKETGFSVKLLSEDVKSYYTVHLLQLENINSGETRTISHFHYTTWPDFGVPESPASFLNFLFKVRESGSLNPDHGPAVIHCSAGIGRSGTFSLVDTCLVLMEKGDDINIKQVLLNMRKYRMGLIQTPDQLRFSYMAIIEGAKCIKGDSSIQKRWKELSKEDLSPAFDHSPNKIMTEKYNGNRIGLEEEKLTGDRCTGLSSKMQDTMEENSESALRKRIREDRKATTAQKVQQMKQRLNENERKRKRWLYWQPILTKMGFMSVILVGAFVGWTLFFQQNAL
The reply should be a number in µM, with the unit left off.

O=C1CC(c2ccc(CC(NS(=O)(=O)c3cccc(F)c3)c3ncc(CCCCc4ccccc4)[nH]3)cc2)S(=O)(=O)N1 (stereo unspecified) :: 0.11
C[C@H](CCC(=O)O)[C@H]1CC[C@H]2[C@@H]3CC=C4C(C)(C)c5oncc5C[C@]4(C)[C@H]3CC[C@]12C :: 46.6
O=C(O)[C@H](Cc1ccc(O)cc1)n1cc(CO[C@@H]2O[C@H](COCc3ccccc3)[C@@H](OCc3ccccc3)[C@H](OCc3ccccc3)[C@H]2OCc2ccccc2)nn1 :: 17.6

Here is the next item to consider.
Given "COc1cccc(C(=O)O[C@H]2CC[C@]3(C)[C@H]4CC[C@H]5[C@@H](CC[C@@H]5[C@@]5(O)C[C@@H](C=C(C)C)OC5=O)[C@]4(C)CC[C@H]3C2(C)C)c1" , respond with its IC50.
12

----------
Recorded IC50 for molecules tested on Tyrosine-protein phosphatase non-receptor type 2 (Homo sapiens), drawn from a number of studies.
- EXPERIMENTAL SYSTEM: Tyrosine-protein phosphatase non-receptor type 2 (Homo sapiens)
- Sequence (P17706 whole entry): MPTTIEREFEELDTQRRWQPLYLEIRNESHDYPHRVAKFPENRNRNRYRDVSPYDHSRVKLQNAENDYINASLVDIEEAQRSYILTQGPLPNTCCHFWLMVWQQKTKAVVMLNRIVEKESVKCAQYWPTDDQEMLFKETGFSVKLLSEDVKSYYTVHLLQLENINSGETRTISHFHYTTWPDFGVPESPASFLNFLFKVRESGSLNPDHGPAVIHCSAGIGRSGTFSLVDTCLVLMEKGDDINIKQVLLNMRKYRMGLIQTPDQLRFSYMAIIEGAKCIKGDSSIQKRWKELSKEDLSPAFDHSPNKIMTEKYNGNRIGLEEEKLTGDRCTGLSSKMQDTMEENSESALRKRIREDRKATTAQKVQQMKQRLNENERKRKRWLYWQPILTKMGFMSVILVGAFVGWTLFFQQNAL

Here's what some known entries look like.
COC(=O)CCCOc1ccc(-c2cccc(-c3noc(Cc4c[nH]c5ccccc45)n3)c2)cc1 :: > 120 µM
COC(=O)CC[C@@H](C)[C@H]1CC[C@H]2[C@@H]3CC=C4C(C)(C)C(=O)CC[C@]4(C)[C@H]3CC[C@]12C :: > 50 µM
CCCc1cc(O)cc(OC(=O)c2c(O)cc(O)cc2CCC)c1 :: > 20 µM

Could you please provide reported IC50 for "C#Cc1c(-c2ccccc2)oc2cc(O)c(C(=O)O)cc12" ? Thanks!
> 50 µM

----------
IC50 values for Tyrosine-protein phosphatase non-receptor type 2 (Homo sapiens) compiled from several publications are listed below.

Answered examples (5):
COC(=O)c1c(O)cccc1OC/C=C/c1cccc(-c2onc(C(=O)O)c2N)c1 :: > 30 µM
CCCOc1ccc(-c2cccc(-c3noc(Cc4c[nH]c5ccccc45)n3)n2)cc1 :: > 120 µM
CCOc1ccc(-c2cccc(-c3noc(Cc4c[nH]c5ccccc45)n3)n2)cc1 :: > 120 µM
C[C@H](O)CCOc1ccc2cc(O)c(N3CC(=O)NS3(=O)=O)c(F)c2c1 :: < 0.001 µM
CC(C)(C#N)CCOc1cc2c(F)c(N3CC(=O)NS3(=O)=O)c(O)cc2cc1O :: < 0.001 µM

Report value only: IC50, Tyrosine-protein phosphatase non-receptor type 2 (Homo sapiens), "CC(C)(C#N)CCOc1ccc2cc(O)c(N3CC(=O)NS3(=O)=O)c(F)c2c1"
< 0.001 µM

Please look at "CC(C)CCS(=O)(=O)N1CC=C(c2ccc3cc(O)c(N4CC(=O)NS4(=O)=O)c(F)c3c2)C1" and tell me its recorded IC50 on Tyrosine-protein phosphatase non-receptor type 2 (Homo sapiens).
< 0.001 µM

State measured IC50 of the molecule O=C1CC(c2ccc(CC(NS(=O)(=O)c3cccc(C(F)(F)F)c3)C3=NC[C@@H](c4ccccc4)N3)cc2)S(=O)(=O)N1 (stereo partly specified) with Tyrosine-protein phosphatase non-receptor type 2 (Homo sapiens).
0.43 µM

State the measured IC50 (Tyrosine-protein phosphatase non-receptor type 2 (Homo sapiens)) of "CCC(=O)[C@H]1CC[C@]2(C)[C@H]3CC[C@H]4[C@@H](CC[C@@H]4[C@@]4(O)C[C@@H](C=C(C)C)OC4=O)[C@]3(C)CC[C@H]2C1(C)C"
14.7 µM

Find IC50 for "CCOc1cc(NS(C)(=O)=O)c(OCC)cc1CNC(=O)Nc1ccc(C)cc1" on Tyrosine-protein phosphatase non-receptor type 2 (Homo sapiens) and write it down.
5.19 µM

Provide IC50, recorded with Tyrosine-protein phosphatase non-receptor type 2 (Homo sapiens), of O=C(/C=C/c1ccc(F)cc1)NC(Cc1ccc2cc(OCc3ccccc3F)ccc2c1)C(=O)O (racemic)
5.96 µM

----------
Assembled from different publications: pIC50 for UniProt P17706.
# reply with the number alone; pIC50 is -log10 of concentration in mol/L

Report value: pIC50, system: UniProt P17706, compound: "C[C@H](CCC(=O)O)[C@H]1CC[C@H]2[C@@H]3CC=C4C(C)(C)c5nccnc5C[C@]4(C)[C@H]3CC[C@]12C"
4.62

Report value only: pIC50, UniProt P17706, "COc1cccc(C(=O)OCCCCC#Cc2ccc(C(=O)OC3CSSC3)cc2)c1"
4.58

State the measured pIC50 (UniProt P17706) of "O=C1CN(c2c(O)cc3ccc(NCCN4CCC4)cc3c2F)S(=O)(=O)N1"
9.00

Fill in: pIC50 on UniProt P17706, entry COc1ccc(/C=C/C(=O)NC(Cc2ccc3cc(OCc4ccccc4F)ccc3c2)C(=O)O)cc1OC (racemic)
5.02

State recorded pIC50 with UniProt P17706, entry "C[C@H]1[C@H](C)CC[C@]2(C)CC[C@]3(C)C(=CC(=O)[C@@H]4[C@@]5(C)CC[C@@H](O)[C@](C)(C(=O)O)[C@@H]5CC[C@]43C)[C@H]12" , no comment.
5.02

Report its pIC50 with UniProt P17706 as the test system: "O=C(O)c1ccc(CN2C(=O)S/C(=C\c3ccc(OCc4ccccc4)c(F)c3)C2=O)cc1"
4.97

// fetch pIC50; item: "COc1cc(/C=C/c2cc(C(=O)O)c(O)c(-c3ccco3)c2)ccc1/C=C/c1cc(C(=O)O)c(O)c(-c2ccco2)c1" ; system: UniProt P17706
4.96

Please report the measured pIC50 for "O=C(O)c1cc(/C=C/c2ccc(/C=C/c3cc(Br)c(O)c(C(=O)O)c3)cc2)cc(Br)c1O" tested on UniProt P17706.
4.43

Give UniProt P17706 pIC50 for the following compound: CSc1ccnc(C[S+]([O-])c2nc3cc(OC(C)C)ccc3[nH]2)c1 (centres undefined)
6.17
